Assign Kd to each entry below.
Molecular target: T1, hu-M-IL1RAP construct, positions S21-T367 (extracellular domain of the membrane form of human IL1RAP) (human, UniProt Q9NPH3 21-367)
T1 construct: Biotinylated when captured on the Biacore chip
T1 sequence: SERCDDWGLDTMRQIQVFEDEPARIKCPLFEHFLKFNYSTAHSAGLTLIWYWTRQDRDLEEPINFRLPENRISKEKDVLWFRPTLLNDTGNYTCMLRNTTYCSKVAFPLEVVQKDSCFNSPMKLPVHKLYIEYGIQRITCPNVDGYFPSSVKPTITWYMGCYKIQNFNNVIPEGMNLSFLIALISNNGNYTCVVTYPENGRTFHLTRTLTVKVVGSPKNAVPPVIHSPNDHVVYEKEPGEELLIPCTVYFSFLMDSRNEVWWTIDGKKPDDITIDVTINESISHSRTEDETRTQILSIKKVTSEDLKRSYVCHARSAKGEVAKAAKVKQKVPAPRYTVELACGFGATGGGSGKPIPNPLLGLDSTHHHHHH
Assay: SPR, Fab analyte, 25 C
One number for each entry, in nM.

Answered examples (2):
>  <Binder>
K17 Fab (VL A51Y/W92K) (Fab, V domains shown, Fab with 8xHis tag) VH: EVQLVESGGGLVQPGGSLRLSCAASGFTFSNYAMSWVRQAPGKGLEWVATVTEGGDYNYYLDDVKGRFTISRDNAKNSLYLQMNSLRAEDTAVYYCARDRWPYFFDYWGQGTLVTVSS VL: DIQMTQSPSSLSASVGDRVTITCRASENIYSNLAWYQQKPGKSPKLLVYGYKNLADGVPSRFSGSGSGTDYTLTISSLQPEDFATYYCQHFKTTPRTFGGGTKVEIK

>  <Observed>
0.00637

$$$$
>  <Binder>
K7 Fab (VL A51R) (Fab, V domains shown, Fab with 8xHis tag) VH: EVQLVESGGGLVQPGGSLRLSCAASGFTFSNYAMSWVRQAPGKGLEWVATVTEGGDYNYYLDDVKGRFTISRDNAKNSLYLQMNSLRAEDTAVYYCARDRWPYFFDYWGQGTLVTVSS VL: DIQMTQSPSSLSASVGDRVTITCRASENIYSNLAWYQQKPGKSPKLLVYGRKNLADGVPSRFSGSGSGTDYTLTISSLQPEDFATYYCQHFWTTPRTFGGGTKVEIK

>  <Observed>
0.0119

$$$$

Ask: Suppose we examine the binder K9 Fab (VL A51D) (Fab, V domains shown, Fab with 8xHis tag) VH: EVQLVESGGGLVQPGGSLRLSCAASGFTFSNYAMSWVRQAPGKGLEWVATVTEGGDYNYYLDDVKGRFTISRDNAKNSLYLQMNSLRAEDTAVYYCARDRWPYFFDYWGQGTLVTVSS VL: DIQMTQSPSSLSASVGDRVTITCRASENIYSNLAWYQQKPGKSPKLLVYGDKNLADGVPSRFSGSGSGTDYTLTISSLQPEDFATYYCQHFWTTPRTFGGGTKVEIK ; what Kd value has been reported?
Result: 0.021
